target: N1L (Vaccinia virus, UniProt P17361); type: binding
endpoint label: ΔH of N1L unfolding (kcal/mol)
Numbers only, in kcal/mol.

{"molecule": "COc1cc(C(c2ccccc2)c2ccccc2)c2ccccc2c1O", "ΔH of N1L unfolding [kcal/mol]": 8.7}
{"molecule": "COc1cc(-c2ccc3cc(OC)c(OC)c(OC)c3c2)cc(OC)c1OC", "ΔH of N1L unfolding [kcal/mol]": 20.3}
{"molecule": "COc1ccc(CCc2cc(OC)c(O)c(OC)c2)cc1", "ΔH of N1L unfolding [kcal/mol]": 11.0}
{"molecule": "Oc1cc(Cc2ccccc2)c(Cc2ccccc2)cc1O", "ΔH of N1L unfolding [kcal/mol]": 11.2}
{"molecule": "Oc1cc(C(c2ccccc2)c2ccccc2)c2ccccc2c1O", "ΔH of N1L unfolding [kcal/mol]": 12.3}

Could I get ΔH of N1L unfolding for every one of these entries?
1. Oc1ccc(/C=N/c2ccccc2/N=C/c2ccc(O)c(O)c2)cc1O
2. Oc1ccc(/C=C/c2cc(O)cc(O)c2)cc1 [Ligand 4, trans-Resveratrol]

[17.8, 10.3]

Where do the numbers come from? From paper PMC2874095.
